Source of measurements: patent EP4572800B1

molecular target: acetyl cholinesterase (ACES) (Homo sapiens, UniProt P22303); experiment: Enzyme inhibition study, ACES; type: biochemical, humans; details: final concentration of tetrazine 10 µM; human ACES
Sequence (P22303 32-614): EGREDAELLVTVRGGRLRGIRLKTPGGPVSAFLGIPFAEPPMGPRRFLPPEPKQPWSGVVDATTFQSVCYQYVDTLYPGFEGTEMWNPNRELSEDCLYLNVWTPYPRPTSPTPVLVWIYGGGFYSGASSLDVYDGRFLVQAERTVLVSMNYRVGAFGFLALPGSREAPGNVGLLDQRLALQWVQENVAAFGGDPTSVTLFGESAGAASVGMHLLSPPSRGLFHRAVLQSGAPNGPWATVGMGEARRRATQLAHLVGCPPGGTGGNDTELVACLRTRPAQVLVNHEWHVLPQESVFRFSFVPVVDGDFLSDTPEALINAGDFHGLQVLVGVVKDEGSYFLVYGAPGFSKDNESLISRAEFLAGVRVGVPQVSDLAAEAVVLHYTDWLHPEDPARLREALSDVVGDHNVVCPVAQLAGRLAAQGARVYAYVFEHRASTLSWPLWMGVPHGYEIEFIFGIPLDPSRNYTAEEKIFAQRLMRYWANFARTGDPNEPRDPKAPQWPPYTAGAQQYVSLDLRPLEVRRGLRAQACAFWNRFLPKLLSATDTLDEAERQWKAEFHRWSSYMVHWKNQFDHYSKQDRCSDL
Label criterion met when % ACES inhibition >= 10%; otherwise criterion not met.

Solved entries (count: 4):
O=C(O)CN(CC(=O)O)CC(=O)Nc1ccc(-c2nnc(-c3ccccn3)nn2)nc1	criterion not met
O=C([O-])CN(CCN(CC(=O)[O-])CC(=O)Nc1ccc(-c2nnc(-c3ccccn3)nn2)nc1)CC(=O)[O-].[Ca+2].[Na+]	criterion not met
O=C(O)CN1CCN(CC(=O)O)CCN(CC(=O)NCCOCCOCCOCCOCCOCCOCCOCCOCCOCCOCCOCCNC(=O)CCCC(=O)Nc2ccc(-c3nnc(-c4ccccn4)nn3)nc2)CCN(CC(=O)O)CC1 [compound 2.1, reference compound]	criterion met
O=C(O)CCOCCOCCOCCC(=O)Nc1ccc(-c2nnc(-c3ccccn3)nn2)nc1	criterion met

Consider the record given below.
Enquiry: Decide: is the reported value of % ACES inhibition for `O=C(O)CN(CCN(CC(=O)O)CC(=O)Nc1ccc(-c2nnc(-c3ccccn3)nn2)nc1)CC(=O)O` equal to or greater than 10%?
Return: criterion met
